- PROTOCOL_DETAILS: label from the status in PepcDB records

- RESIDUE_CODES: "MSEEKNTAIDLKNLKAGGFIKERGKDLFTVRLRVPGGRLPVGRLKKIAEVAEKYGQGMVHLSVRQSVELININFRDFDAVVAELGEGTQKVASCGARVRVPTACGGCEYNPNGLVDTQKSALEVDEKLFGIPTGHHKFKVGFAGCPFDCPKSATNDVGFQGAVWPVLSADHCIGCGLCAKSCTEDAIAMGDNGKPLFIPANCLYCGDCLKVCPTEAWRAGKKGYTVRIGGKWGRRPLVGTLFAEFLPEDQVVDFIAAVLGWYQEKAEGQGRIRLGDVIRAQGPEALLARLRERFPAFVVNATIAPQAIATQVGKEKQAHDNRLEHHHHHH"
  protein production: "not failed"
- RESIDUE_CODES: "MSQERTDGDLRNTGLSLKHDREWDYELDRIVEAVEERDAEKVGLQFPEGLKRRGPAVADDLREELPDDVTVLLSGQPCYGACDLDTYMMRRTDVFVHFGHSPMKESDKIIYVPLFSNVDVFPIMEQAREEQLADPEDDPDVGLVTTAQHMNKFDEMREWLEERGYTVHTRRGDERLTHEGQVLGCNYASADVDADQMLYVGGGKFHPLGLAMEHPEKHVVIADPVNNVVTVADTEKFMKQRYGAVHRAMDAESWGVIFCTKIGQGRWDQAEEIVENNENAYLITMDEVTPDRLTNFGMDAYVNTGCPRITTDDGPQFKKPMLTPGEYEIAIGEKPLDSLEFDTFHGTWLEHHHHHH"
  protein production: "not failed"

----------
- PROTOCOL_DETAILS: label from the status in PepcDB records
MEASUREMENT_LABEL: protein production

- RESIDUE_CODES: "MGIDPVTHRATHKTKRVEATANTFKAVATEWLKEVHQKAVVEEHYNRNVRRLEQHAFPKLGRRPISEIEPSDILEPLRDIAKTGRRETAKRVKTLIGQVFRYTVSTGRAQRDMTADIRGILPALEHHHHHH"
  OBSERVED_VALUE: "failed"
- RESIDUE_CODES: "GPVPTPPDNIQVQENFNISRIYGKWYNLAIGSTCPWLKKIMDRMTVSTLVLGEGATEAEISMTSTRWRKGVCEETSGAYEKTDTD"
  OBSERVED_VALUE: "failed"

----------
- PROTOCOL_DETAILS: label from the status in PepcDB records

- RESIDUE_CODES: "MPDASAENPWLPLRQLTPARIALGRTGTSLPTRPQLDFQYAHAQARDAVHLPFDHAAISDGLRQRGRDSLLLHSAAADRHVYLQRPDLGRRLDEASVQRLREHAAGYDGQIDLAIVVADGLSALAVQRHTLPFLERLEEQALAEGWSLSPVVLVEQGRVAVADEIGELLRAKMSVILIGERPGLSSPDSLGLYFTWAPRVGLTDAYRNCISNVRLEGLSYGMAAHRLLYLMREACRRQLSGVNLKDEAEVQALDGEAPRTGNFLLAR"
  protein production: "failed"
- RESIDUE_CODES: "MYTNVHSANNYQANLSNRSYGFKELAVLYFPNIAPASASIRLKQWIKDDVELLGSLEETNYHLSNRILTPKQRDLITTTFGSPFLEHHHHHH"
  protein production: "failed"

----------
- PROTOCOL_DETAILS: label from the status in PepcDB records
MEASUREMENT_LABEL: protein production

- RESIDUE_CODES: "MLIKQTDYFRIYRVINSLLISQNADPASASMYFSTFGAFILQQHYKVKAVPKGGLAAYNLGGTVLLFADHREDGYVTGAGENFHCWVEADGWAIDFMAPAFSEGTDALAVPAKMFQRPLSAMAASINDLGQSGDFFYRSEPEATARRFADWHKQAMIGDMASVAANWFRKSPKQMAASLSVTDRDGKARTVPLTGEMLTGAW"
  OBSERVED_VALUE: "not failed"
- RESIDUE_CODES: "RTNRLSAVQSNKMIVRAMERGVSAERLGKALGLSPQTIRQRFRLLNGICAEVVALLGDTDCPANVFNLLRQMKPLRQIEAAELMIGNKNLSVLLAKALLAATPPDQLVMIKKPSQDHQVSAESMARLERELAALQMQIKTVEEDYGPDVLHLTVIKGYLTKLLANAAVVRWLARHQPEYLKEFQSIAELTELPWADNGPEDDLQSTTAEG"
  OBSERVED_VALUE: "not failed"
- RESIDUE_CODES: "METESIKLDVQVTTTSQDPSLGLLSTVIITLDRDLEEYDENVDSIKSLGSYPDSSTPDESLIILKLPTSEPDYIYLTLRSKLKDHLHDHVLSEEIADQIFEAQLGTQSIDQFPFQQPLFMLVSVKLTQKLYTYAPCNASPLATDLTKRAK"
  OBSERVED_VALUE: "failed"
- RESIDUE_CODES: "MCQSNQIVSHFLSHRNVTNELAEKISKDHYSYKPAETSMSAEELVKHILTSFHLFANVIKEGNASPFQNKQEETETDLNVLAKTYTEKTVAILEQLTEEQLDREIDLTSAFGRKVTGRALLQLAMEHEIHHKGNLFVYVREMGHTELPFYQQRM"
  OBSERVED_VALUE: "not failed"
- RESIDUE_CODES: "MSIISLDTRVKVGNTDYALSELFELVDQQTSDYGTSLNALKQAVVSGDLTIIQQVLQNSAAALRSLASLQNTLEKVLTLDLADPAQPEHVFIVEDSRGATELKLYKSHYTIGKADSCDIRLHSIYASRQHATLVRFLTENGEVRYRLIDGDPETSRRSANGTYVNNRSITECDLKHYDQILFGADVKATYFYLSPQFRSLTGLQDPTVSLSPDSTTEFEA"
  OBSERVED_VALUE: "failed"
- RESIDUE_CODES: "MKVLIGGYTKKTSKGIYELPFIGEDNEAHLEKAENIISVGGPTYFQKDGDLVFTINNAGDEGGISAFKLSDHGSNEIDRHLTPGASPAYIGINKEKKLLYTANYHTAVLSVFQYSNSGKLALVAQTTHKAESLGPRPEQVDGPHPHFFDETPAGNLVSCDLGNDTVDFYRLENNELKHLAQYKNEAGFGDRHIVFSKDGNYFYVVGELSSQINVVKFNENTWEFEDIATYKTIPEDFTEHNGAAALYITNDGKYIYNSNRGHNSITVFKVNDDHTLSLIQRISTFGDFPRDFNWDETQKYVVAANQNTDNATLYLRNGGNGTLTPIQTEIPVPEGTRVLFTKLEHHHHHH"
  OBSERVED_VALUE: "failed"
- RESIDUE_CODES: "MCIGMDIRDFFAQSAGRWFSQRTSHHLAFKQTESGKSQLTIELLSVDDPAVIALCQQYDMDPAWAVCGARVSWDGTMEWDNEKHEGSTVLVPIMDQGSRMEGKLLREMGYAEKAPVAGRFSMGSDGALTLITEYETIYSEERLWFASPNLRLRTSILKRFGGFSMASFCSEIRLGVTQPANSLEHHHHHH"
  OBSERVED_VALUE: "not failed"

----------
- PROTOCOL_DETAILS: label from the status in PepcDB records
MEASUREMENT_LABEL: protein production

- RESIDUE_CODES: "SLLCGPLRLSESGETWSEVWAAIPMSDPQVLHLQGGSQDGRLPRTIPLPSCKLSVPDPEERLDSGHVWKLQWAKQSWYLSASSAELQQQWLETLSTAAH"
  MEASUREMENT_LABEL: "protein production"
  OBSERVED_VALUE: "not failed"
- RESIDUE_CODES: "RVGIIVAAHGNSTASSMVEVATELLGSTPIAAVDMPLTVSPSDILECVAEKMKQVDEGEGVLMLVDMGSLAMLESRLEEKTGISIKTISNVTTSMVLDAVRKVNYLNLNLHAIYQSVTKDFIELWERQPAASGKK"
  MEASUREMENT_LABEL: "protein production"
  OBSERVED_VALUE: "failed"
- RESIDUE_CODES: "MNSFLIIIFRLYLPISVAILTGVLLSFSLEKLQGNFSKNKHLSLVVPNYLGKFLFWFGVPLGVINFVHKANLSGGIWLSPIVAWGAVVLGIFLSWLWVQTLFPKPSLAFQTSFTLVSTVGNTSYIGFPIILLLPQLGPDYFGWAILYDLLGTFLAAYGLGSILASRSLLTNPNKIISFGLDSPVFPINQKTITDHIKSSILKIFQWLKNNLVILVKNPTLIAFIIGLILRPIVFPPWLDISLGWFAWSIIMLSLILMGMRLQQLDSWGNIKIAFSAVSIKMLLVPLVIAMALTTAGLSGPPRLVLVLQSSMPSAFASLILAEAYDLDRDLVVTCLGLSSLMLFFTLPFWLWGFTTW"
  MEASUREMENT_LABEL: "protein production"
  OBSERVED_VALUE: "failed"
- RESIDUE_CODES: "MLTLLSPCTLPVIPLLFASVRGRRGQLAIMLAGMALMFGAVSWLVTVASGWVVNLTLAGRGLALAFFALVGLSLLSQRVAQRLTSPLVALGNQLNDASSRQRGWIGSLLAGLAVGLLWAPCAGPVLGAILSLGFVHPGQATTGGLLLAYGSGGALMLFLLGWCGAALIARLRRGQAFGERLRRLAGGAMLASVALIASGGDRYLQSAGGLSQALEQRLAARLPQPEQKTSLQPIAAPQPSSAMPSLAGGSAWINSPALTPERLKGKVVLVDFWTRECINCQHTLPYVRDWANKYRAAGLVVIGVHTPEYPWERSLPLLRQAVKDWRITYPVVADNEYAIWNAFGNQYWPAHYIFDARGQLRYTAFGEGDYARQEQVIQQLLQESKA"
  MEASUREMENT_LABEL: "protein production"
  OBSERVED_VALUE: "failed"
- RESIDUE_CODES: "MCTFCSIINRELEGYFVYEDEKFAAILDKYPVSLGHTLVIPKKHFENYLEADEDTLAELAKVVKLVSLGIKDAVKADGLRLLTNIGRSAGQVIFHLHVHIIPTWEGDYPDIFKSFKPRKEQEKEYYELLQKIIRESIENLKRKIGDYKWG"
  MEASUREMENT_LABEL: "protein production"
  OBSERVED_VALUE: "not failed"
- RESIDUE_CODES: "MSDINKPFLVVIVGPTASGKTELSIELAKQINGEIISGDSMQVYKQMDIGTAKVTNEEMDGIPHYMIDILNPDDSFSVYDFKLRAQALIEDITSRGKIPIIAGGTGLYIQSLIYDYPFDDETVSKEVEQKTQLQLQKLEPLTNQEVHDYLATFDPQSAKDIHPNNRKRVLRAIEYYLNTKKLISSRKKVQQFTENYDTLLIGIEMSRKTLYSRINKRVDIMLGHGLFNEVKNLVEQGYESTQSMQAIGYKELVPVVNGELSIDQAVETLKQHSRQYAKRQLTWFKNKLTVQWFNRETMSLQMMLDEITTQINKRSSKHDCKPQHPRSSTREL"
  MEASUREMENT_LABEL: "protein production"
  OBSERVED_VALUE: "failed"
- RESIDUE_CODES: "MRHRGGRGFRGWWLASTILLLVAEKPSHGYELAERLAEFGIEIPGIGHMGNIYRVLADLEESGFLSTEWDTTVSPPRKIYRITPQGKLYLREILRSLEDMKRRIETLEERIKRVLQEE"
  MEASUREMENT_LABEL: "protein production"
  OBSERVED_VALUE: "not failed"
- RESIDUE_CODES: "MKNLFLTSSFKDVVPLFTEFESNLQGKTVTFIPTASTVEEVTFYVEAGKKALESLGLLVEELDIATESLGEITTKLRKNDFIYVTGGNTFFLLQELKRTGADKLILEEIAAGKLYIGESAGAVITSPNIAYIQTMDSTKKAVNLTNYDALNLVDFSTLPHYNNTPFKEITQKIVTEYAGKSQIYPISNHEAIFIRGKEVITKRLS"
  MEASUREMENT_LABEL: "protein production"
  OBSERVED_VALUE: "failed"
- RESIDUE_CODES: "MNLTELMERIPHLREILNIVREAFKDYDDPAHDISHTFRVMENASEIASREKCDLQKAIIAALLHDIKRPHEALTGVDHAESGAEYASGLLPTMGFDISFVAEVSKAIRSHRYSGGLTPTSLTGKILQDADRLDAIGAVAIARVFSYSGKTGTPLHSLQFSPRSSYSGNSRSSINHFHEKILKIRPETFWTETARKMAEDRYSFVVEFVQRFLAEWGQI"
  MEASUREMENT_LABEL: "protein production"
  OBSERVED_VALUE: "not failed"
- RESIDUE_CODES: "MMRVKFNGKELDTDFKTSLEFFENISKNENDVWIINGFATKENIALNENDELFCIEKNTLPPKDALDAMMRARHTPKLHDKLKNGRVAVCGLGGLGSHIAINLARSGVGYLKLIDFDVIEPSNLNRQAYRVSDLGKFKTEALKEQISEINPYISVEICTLKIDEDNLESLFKDIDIVCEAFDSAIAKAMIAQNFHRFYKDGILICASGLAGYGDSNSIQTRKIAKNFYVCGDLVNGAKLGNGLMAPRVNICAGHQSNLVLELLANKELEHHHHHH"
  MEASUREMENT_LABEL: "protein production"
  OBSERVED_VALUE: "not failed"
- RESIDUE_CODES: "MAFQLHPRLQQDCIVLGNLPLCKVLLIKEDIGPWLILVPRIEELKEIHHMTDEQQIQFIKESSAVAQLLEDNFSPDKINIGALGNLVPQLHIHHIARFTTDVAWPGPVWGNTTGVIRAQSSQTQLVDLLRDKLSNISGFKRLEHHHHHH"
  MEASUREMENT_LABEL: "protein production"
  OBSERVED_VALUE: "not failed"
- RESIDUE_CODES: "MILINKRAEKQDYQTILAIWEKSVIVTHDFLTAEDRQFYKEQIPLFLDNVELFLWFAGEEVIGFSGTSERELDMLFLDPVATGNGYGSQILGWLIENKRINLVDVNEQNENATRFYLKHGFVVSSRSDLDGFGKPYPILQLQLKERVNGV"
  MEASUREMENT_LABEL: "protein production"
  OBSERVED_VALUE: "not failed"
- RESIDUE_CODES: "MFVYAYILMLLLTVLMCINLFIDSFKCPVKIRRILRGLVFLIMLRYVTLLIMCLKKSITYIYFMRPIVLLDILYIPLVILIMIFVFTRSAKFNFVYAAISGIIFFSLYIFLNFKILKTANPFYSYSFGYLIDLKSYSVVVAVVKVMVLILMLMLCGYFLRKSNIRRAGFCFLMIVILVMLVENISIIIMPKVMPEYLFGEVLLLICLNYMVRLFKK"
  MEASUREMENT_LABEL: "protein production"
  OBSERVED_VALUE: "failed"
- RESIDUE_CODES: "MGNLSLGELELTVLYDEERYDIVEQTETVQVDLEGPRGVLTVFRFARPSYEVFVDLTEAGEGSHTVDVEHRGFPGDLAVTVEPRLEHHHHHH"
  MEASUREMENT_LABEL: "protein production"
  OBSERVED_VALUE: "failed"
